From: patent US10799518B2

# target-of-assay: human FPR2 receptor (Homo sapiens (Human))
# procedure-details: FLIPR Ca+2 response in HEK-Gα16 cells stably expressing the human FPR2 receptor
# Format: cell-based
# protocol-conditions: Table 4; value in parentheses, given mostly as fraction
// reported FPR2 (% eff) for each item listed
property-name: FPR2 (% eff)

> print(dat)
                                   molecule  obs.value
1  CCC[C@H](NC(=O)Nc1ccc(Br)cc1)C(=O)NCP(=O)(O)OCC        96%
2  CC(C)C[C@H](NC(=O)Nc1ccc(Br)cc1)C(=O)N[C@@H](C)C(=O)O       100%
3  CCOP(=O)(CNC(=O)[C@H](Cc1ccccc1)NC(=O)Nc1ccc(Br)cc1)OCC        93%
4  CC(C)C[C@H](NC(=O)Nc1ccc(C(F)(F)F)cc1)C(=O)NCC(=O)O       100%
5  CCOP(=O)(O)CNC(=O)[C@H](CC(C)C)NC(=O)Nc1ccc(Br)cc1        88%
6  CCOP(=O)(CNC(=O)[C@H](CC(C)C)NC(=O)Nc1ccc(C(F)(F)F)cc1)OCC        97%
7  O=C(O)[C@@H]1C2CCC([C@@H]1C(=O)Nc1ccc(Br)cc1)C21CC1 (relative stereo)        90%
8  CCOP(=O)(O)CNC(=O)[C@H](CC(C)C)NC(=O)Nc1ccc(C(F)(F)F)cc1        91%

###

// reported pEC50 for each item listed
# target-of-assay: human FPR2 receptor (Homo sapiens (Human), UniProt P25090)
# procedure-details: FLIPR Ca+2 response in HEK-Gα16 cells stably expressing the human FPR2 receptor
# protocol-conditions: Table 4; HEK-Gα16 human FPR2, FLIPR
# Description: HEK-Gα16 cells stably expressing the human FPR2 receptor was utilized. Cells were plated into 384-well poly-D-lysine coated plates at a density of 18,000 cells per well one day prior to use. […] Extracellular dye was removed by washing the cell plates four times prior to placing the plates in the FLIPR (Fluorometric Imaging Plate Reader, Molecular Devices). […] Data for Ca^+2 responses were obtained in relative fluorescence units.
pEC50: −log10 of the molar value.
property-name: pEC50

> print(dat)
                                   molecule  obs.value
1  CSc1ccc(NC(=O)C2C(C(=O)O)C3C=CC2C32CC2)cc1 (stereo not drawn)       7.85
2  CCOP(=O)(CCNC(=O)[C@H](CC(C)C)NC(=O)Nc1ccc(Br)cc1)OCC       7.79
3  O=C(O)[C@@H]1C2CCC([C@@H]1C(=O)Nc1ccc(Br)cc1)C21CC1 (relative stereo)       8.40

###

# target-of-assay: FPRL-1 (Homo sapiens (Human))
# Sequence (P25090 whole entry): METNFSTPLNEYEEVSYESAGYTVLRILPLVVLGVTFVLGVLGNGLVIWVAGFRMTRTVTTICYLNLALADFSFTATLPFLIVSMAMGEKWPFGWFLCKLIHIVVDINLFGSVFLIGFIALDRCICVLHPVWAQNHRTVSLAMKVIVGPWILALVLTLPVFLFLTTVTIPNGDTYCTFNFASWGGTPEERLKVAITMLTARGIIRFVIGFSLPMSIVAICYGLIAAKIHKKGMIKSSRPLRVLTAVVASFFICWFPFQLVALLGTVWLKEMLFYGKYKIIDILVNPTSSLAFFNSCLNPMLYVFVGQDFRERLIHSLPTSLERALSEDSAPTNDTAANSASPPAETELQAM
# procedure-details: FPRL-1 Ga16-CHO EC50 (efficacy)
# Format: cell-based
# protocol-conditions: Table 3; value in parentheses
property-name: FPRL-1 Ga16-CHO (efficacy)

> print(dat)
                                    molecule                target.of.assay               property.name  obs.value
 1  O=C(CN1C(=O)NC2(CCCCCC2)C1=O)Nc1ccc(Br)cc1  FPRL-1 (Homo sapiens (Human))  FPRL-1 Ga16-CHO (efficacy)       0.96
 2  CC1(C2CC2)NC(=O)N(CC(=O)Nc2ccc(Br)cc2)C1=O (centres unmarked)  FPRL-1 (Homo sapiens (Human))  FPRL-1 Ga16-CHO (efficacy)       0.84
 3  CCC1(C)NC(=O)N(CC(=O)Nc2ccc(Br)cc2)C1=O (centres unmarked)  FPRL-1 (Homo sapiens (Human))  FPRL-1 Ga16-CHO (efficacy)        1.0
 4  CCC1(CC)NC(=O)N(CC(=O)Nc2ccc(Cl)cc2)C1=O  FPRL-1 (Homo sapiens (Human))  FPRL-1 Ga16-CHO (efficacy)       0.79
 5  CCC1(CC)NC(=O)N(CC(=O)Nc2ccc(Br)cc2)C1=O  FPRL-1 (Homo sapiens (Human))  FPRL-1 Ga16-CHO (efficacy)       0.98
 6   CCC1(CC)NC(=O)N(CC(=O)Nc2ccc(F)cc2)C1=O  FPRL-1 (Homo sapiens (Human))  FPRL-1 Ga16-CHO (efficacy)       0.67
 7    CC1(C)NC(=O)N(CC(=O)Nc2ccc(Br)cc2)C1=O  FPRL-1 (Homo sapiens (Human))  FPRL-1 Ga16-CHO (efficacy)       0.94
 8  O=C(CN1C(=O)NC2(CCCCC2)C1=O)Nc1ccc(Br)cc1  FPRL-1 (Homo sapiens (Human))  FPRL-1 Ga16-CHO (efficacy)       0.89
 9  O=C(CN1C(=O)NC2(CCCC2)C1=O)Nc1ccc(Br)cc1  FPRL-1 (Homo sapiens (Human))  FPRL-1 Ga16-CHO (efficacy)       0.96
10  CCC1(c2ccccc2)NC(=O)N(CC(=O)Nc2ccc(Br)cc2)C1=O (centres unmarked)  FPRL-1 (Homo sapiens (Human))  FPRL-1 Ga16-CHO (efficacy)       0.83
11  O=C(CN1C(=O)C2CC=CCC2C1=O)Nc1ccc(Br)cc1 (centres unmarked)  FPRL-1 (Homo sapiens (Human))  FPRL-1 Ga16-CHO (efficacy)       0.98
12  CCCC1(CCC)NC(=O)N(CC(=O)Nc2ccc(Br)cc2)C1=O  FPRL-1 (Homo sapiens (Human))  FPRL-1 Ga16-CHO (efficacy)       0.98
13  CC1(CCc2ccccc2)NC(=O)N(CC(=O)Nc2ccc(Br)cc2)C1=O (centres unmarked)  FPRL-1 (Homo sapiens (Human))  FPRL-1 Ga16-CHO (efficacy)       0.88
14  O=C(CN1C(=O)C2C3C=CC(C3)C2C1=O)Nc1ccc(Br)cc1 (centres unmarked)  FPRL-1 (Homo sapiens (Human))  FPRL-1 Ga16-CHO (efficacy)       0.90
